# tested target: h-jak3(810-1124) (JAK3: Recombinant human kinase domain) (Homo sapiens, UniProt P52333)
# Construct: jak3(810- 1124)-sf9-c; made in house; host or cells: Sf9
# Sequence (P52333 810-1124): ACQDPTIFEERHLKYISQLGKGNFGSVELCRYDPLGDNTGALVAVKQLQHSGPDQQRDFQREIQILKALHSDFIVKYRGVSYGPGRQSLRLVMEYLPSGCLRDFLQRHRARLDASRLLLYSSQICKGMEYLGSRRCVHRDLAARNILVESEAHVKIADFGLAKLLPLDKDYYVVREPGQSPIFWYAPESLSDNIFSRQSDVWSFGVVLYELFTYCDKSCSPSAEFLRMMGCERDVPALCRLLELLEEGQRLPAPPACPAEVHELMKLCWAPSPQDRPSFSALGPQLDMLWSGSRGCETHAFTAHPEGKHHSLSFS
# measurement description: Determination of IC50 of Janus Kinase (JAK) inhibition: JAK3 radioactive end-point 33P-ATP kinase assay
# Assay type: biochemical
# measurement context: no additive; ATP 1.5 uM, peptide 50 uM, 20 minutes, room temperature; read-out: Ic50 h-jak3(810-1124)-sf9-c: no additive
assay readout: IC50 (nM)
Kindly answer with a numeric value in nM, unit omitted.

CC[C@@H](NC(=O)c1c[nH]c2ncc(C3CC3)nc12)C(=O)N1CCCC1	11.7
CC[C@H](C)[C@@H](NC(=O)c1c[nH]c2ncc(C3CC3)nc12)C(=O)N1CCC(C#N)CC1	1.37
CCn1cc(-c2cnc3[nH]cc(C(=O)N[C@@H](C(=O)N4CCC(F)(C5=NCCN5)C4)C(C)(C)C)c3n2)cn1 (stereo partly shown)	2.79

For the next question, use this compound.
Ask | Respond only with IC50 recorded for CC(C)[C@@H](NC(=O)c1c[nH]c2ncc(C3CC3)nc12)C(=O)N1CCCC1
Reply | 4.86

---

# tested target: h-jak3(810-1124) (JAK3: Recombinant human kinase domain) (Homo sapiens)
# Construct: jak3(810- 1124)-sf9-c
# measurement description: Determination of IC50 of Janus Kinase (JAK) inhibition: JAK3 radioactive end-point 33P-ATP kinase assay
# measurement context: no additive; ATP 1.5 uM, peptide 50 uM, 20 minutes, room temperature; read-out: Ic50 h-jak3(810-1124)-sf9-c: no additive
assay readout: IC50 (nM)
Please give a number only; it is taken to be in nM.

CC[C@@H](C)[C@@H](NC(=O)c1c[nH]c2ncc(C3CC3)nc12)C(=O)N1CCC(C#N)CC1	1.27
COc1cc(-c2cnc3[nH]cc(C(=O)N[C@@H](C(=O)N4CCC(C#N)CC4)C(C)(C)C)c3n2)cc(OC)c1OC	94.9
N#CC1CCN(C(=O)[C@H](NC(=O)c2c[nH]c3ncc(-c4cn(-c5ccccc5)nn4)nc23)C2CC2)CC1	6.05

Next up:
Ask | Report value: IC50, system: h-jak3(810-1124) (JAK3: Recombinant human kinase domain) (Homo sapiens), compound: Cn1cc(-c2cnc3[nH]cc(C(=O)N[C@@H](C(=O)N4CC[C@@H](C#N)C4)C(C)(C)C)c3n2)cn1
Reply | 0.79

---

# tested target: h-jak3(810-1124) (JAK3: Recombinant human kinase domain) (Homo sapiens, UniProt P52333)
# Construct: jak3(810- 1124)-sf9-c
# measurement description: Determination of IC50 of Janus Kinase (JAK) inhibition: JAK3 radioactive end-point 33P-ATP kinase assay
# measurement context: no additive; ATP 1.5 uM, peptide 50 uM, 20 minutes, room temperature; read-out: Ic50 h-jak3(810-1124)-sf9-c: no additive
Measured IC50 by item

See these solved cases before continuing.
CCn1cc(-c2cnc3[nH]cc(C(=O)N[C@@H](C(=O)N4CCC(F)(C#N)C4)C(C)(C)C)c3n2)cn1 (stereo partly shown) [Example I-36]	≤ 0.32 nM
CCn1cc(-c2cnc3[nH]cc(C(=O)N[C@@H](CC(F)(F)F)C(=O)N4CCC(C#N)CC4)c3n2)cn1 [Example I-105]	2260 nM

Ask | Note down IC50 recorded for C[C@@H](NC(=O)c1c[nH]c2ncc(C3CC3)nc12)C(=O)N1CC2(COC2)C1 [Example I-24]
Reply | 72.8 nM

Ask | Supply reported IC50 belonging to this compound: C[C@@H](NC(=O)c1c[nH]c2ncc(C3CC3)nc12)C(=O)N1CC[C@H](F)C1 [Example I-22]
Reply | 5.34 nM
